The reported numbers originate from PubChem BioAssay (EPA / NIEHS).

Read-out: Human Leukocyte Antigen - DR isotype (HLADR), HLA-DRA (gene 3122)
protocolDetails: BSK_CASM3C_HLADR: BioMAP Diversity Plus: CASM3C Assay for Human Leukocyte Antigen - DR isotype (HLADR) Biomarker Activity (AID 2283043);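 also: cell-surface HLA-DR protein level quantified by ELISA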
experimentalContext: primary human coronary artery smooth muscle cells; actives raise or lower the signal
Activity calls are given as the source filed them. The calls were made as follows: active = hit-call score of the fitted dose curve at least 0.9, where 1 is the maximum; inactive = score below 0.9.
# valid calls are true = active, false = inactive; nothing else

Here's what some known entries look like.
>>> category("O=C(O)c1c(Cl)ccc2cc(Cl)cnc12")
"false"
>>> category("CC(C)NC(=O)N1CC(=O)N(c2cc(Cl)cc(Cl)c2)C1=O")
"false"

Switching to the query record.
# fetch the recorded call for O=C1C2CC=CCC2C(=O)N1SC(Cl)(Cl)Cl (centres undefined) here
true

====

Read-out: sulfotransferase 2A1 (SULT2A1), SULT2A1 (gene 6822)
protocolDetails: LTEA_HepaRG_SULT2A1: Life Technologies and Expression Analysis (LTEA) Assay for sulfotransferase 2A1 (SULT2A1) using HepaRG (AID 2283531)
experimentalContext: mRNA level, 48 h; actives raise or lower the signal
Calls of active or inactive are those of the source. The calls were made as follows: active = hit-call score of the fitted dose curve at least 0.9, where 1 is the maximum; inactive = score below 0.9.
Please state which outcome applies, choosing from True (active), False (inactive)

>>> category("CC(C)NC(=O)N1CC(=O)N(c2cc(Cl)cc(Cl)c2)C1=O")
"True"
>>> category("CC(C)C1(C)N=C(c2ncccc2C(=O)O)NC1=O (stereo not drawn)")
"False"
>>> category("O=C(O)c1c(Cl)ccc2cc(Cl)cnc12")
"False"

Short answer needed: outcome of this test for "Cc1ccc(N=CN(C)C=Nc2ccc(C)cc2C)c(C)c1" ?
False

What outcome does the record of this test show for "COP(=S)(OC)SCn1nnc2ccccc2c1=O" ?
False

Dear all, I need the recorded test outcome for "Clc1cccc(C(Cl)(Cl)Cl)n1" , thank you.
False

For this compound, state the assay outcome: CC(C)=CC1C(C(=O)OCc2coc(Cc3ccccc3)c2)C1(C)C (stereo not drawn)
False

Could you kindly confirm the outcome this assay logged for CCNP(=S)(OC)O/C(C)=C/C(=O)OC(C)C (stereo not drawn) ?
False

Name the outcome recorded for "COc1ccc(-c2ccccc2)cc1NNC(=O)OC(C)C" in the assay.
False

Given "Nc1c(Cl)c(F)nc(OCC(=O)O)c1Cl" , state the outcome it received in this test.
False

Please state the recorded outcome for this compound: CCCN(CC)CC1COC2(CCC(C(C)(C)C)CC2)O1 (stereo not drawn)
False

Which outcome did this test record for the compound "C=CCOC(=O)C(C)(C)OC(=O)c1cc(-n2c(=O)cc(C(F)(F)F)n(C)c2=O)ccc1Cl" ?
False

Tell me the assay call for CCC(C)n1c(=O)[nH]c(C)c(Br)c1=O (stereo not drawn) please.
True

====

Read-out: matrix metalloproteinase-10 (MMP10), MMP10 (gene 4319)
protocolDetails: LTEA_HepaRG_MMP10: Life Technologies and Expression Analysis (LTEA) Assay for matrix metalloproteinase-10 (MMP10) using HepaRG (AID 2283517)
experimentalContext: mRNA level, 48 h; actives raise or lower the signal
The source made the active and inactive calls. Rule for the calls: active = hit-call score of the fitted dose curve at least 0.9, where 1 is the maximum; inactive = score below 0.9.
Write down one outcome, taken from t = active, f = inactive

>>> category("CC1(C)C(C=C(Cl)Cl)C1C(=O)OC(C#N)c1cccc(Oc2ccccc2)c1 (centres undefined)")
"f"
>>> category("CC(C)N1C(=O)c2ccccc2NS1(=O)=O")
"f"
>>> category("C=C(C)CN(CC)c1c([N+](=O)[O-])cc(C(F)(F)F)cc1[N+](=O)[O-]")
"f"

Consider the record given below.
Entry "CCOP(=O)(OCC)Oc1nc(Cl)c(Cl)cc1Cl" : call = ?
f
